The origin of these recorded values is patent US20110076723A1.

- assayedTarget: T1, recombinant hAng-2 (recombinant protein with His tag attached to human Ang-2; R&D Systems) (human, UniProt O15123 19-496)
- T1 construct: also called angiopoietin-2; ANGPT2
- T1 sequence (looked up): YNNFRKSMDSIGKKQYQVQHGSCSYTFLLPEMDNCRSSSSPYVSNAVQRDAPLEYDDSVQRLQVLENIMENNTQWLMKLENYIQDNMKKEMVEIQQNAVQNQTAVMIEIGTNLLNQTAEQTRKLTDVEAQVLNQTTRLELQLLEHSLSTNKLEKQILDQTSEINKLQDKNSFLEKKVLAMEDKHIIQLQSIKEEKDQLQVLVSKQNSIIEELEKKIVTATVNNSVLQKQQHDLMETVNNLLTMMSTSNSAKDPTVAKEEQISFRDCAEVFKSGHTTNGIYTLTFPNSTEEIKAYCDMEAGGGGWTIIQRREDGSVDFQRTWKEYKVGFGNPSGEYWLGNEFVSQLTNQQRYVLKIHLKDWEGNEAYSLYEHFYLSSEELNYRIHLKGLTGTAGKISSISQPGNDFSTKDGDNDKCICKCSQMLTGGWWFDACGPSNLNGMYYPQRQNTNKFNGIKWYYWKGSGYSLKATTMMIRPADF
- protocol: competitive ELISA; synergibody titrated with 1 nM hAng-2 (His) on coated hTie2-Fc
The entries below come with measured IC50 values attached.
Entry rule: numbers only, all in nM.

Syn-Ang-VEGFR-6 (other, Chimeric (human IgG1) SAITAng-2-2 with the peptide at the C-terminus of the heavy chain; also called SAITAng-2-2 x DTN6VEGFR-2-1; not shown: human IgG1 heavy chain constant region with Fc region, from the vector; human light chain constant region, printed as 'constant region of human IgG1') heavy (part 1 of 2): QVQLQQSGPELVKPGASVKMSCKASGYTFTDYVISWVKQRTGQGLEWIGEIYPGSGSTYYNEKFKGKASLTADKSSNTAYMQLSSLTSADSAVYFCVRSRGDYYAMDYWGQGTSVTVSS heavy (part 2 of 2): TGSDDLCYTFPCMHY light: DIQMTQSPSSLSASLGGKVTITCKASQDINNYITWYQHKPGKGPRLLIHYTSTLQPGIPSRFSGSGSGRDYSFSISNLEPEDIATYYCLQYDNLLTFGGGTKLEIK :: 1.91
Syn-Ang-VEGFR-19 (other, Chimeric (human IgG1) SAITAng-2-4 with the peptide at the C-terminus of the heavy chain; also called SAITAng-2-4 x DTN10VEGFR-2-4; not shown: human IgG1 heavy chain constant region with Fc region, from the vector; human light chain constant region, printed as 'constant region of human IgG1') heavy (part 1 of 2): QVQLQQSGAELARPGASVKLSCKASGYTFTDYYINWAKQRTGQGLEWIGEIYPGSGDTYYNEKFKGKATLTADKSSSTAYMQLSSLTSEDSAVYFCARYGYKGVYFDYWGQSTTLTVSS heavy (part 2 of 2): TGSGRMCDGSGPPTNCWFT light: ENVLTQSPAIMAASLGQKVTMTCSASSSVSSSYLHWYQQKSGASPKPLIHRTSNLASGVPARFSGSGSGTSYSLTISSVEAEDDATYYCQQWSGYPFTFGAGTKLELK :: 1.28

We next turn to a different binder, shown below.
Prompt line: Quick one: IC50 of Syn-Ang-VEGFR-11 (other, Chimeric (human IgG1) SAITAng-2-3 with the peptide at the C-terminus of the heavy chain; also called SAITAng-2-3 x DTN6VEGFR-2-1; not shown: human IgG1 heavy chain constant region with Fc region, from the vector; human light chain constant region, printed as 'constant region of human IgG1') heavy (part 1 of 2): DVQLVESGGGLVQPGGSRKLSCAASGFTFSSFGMHWVRQAPEKGLEWVAYISSDSSTIYYADTVKGRFTISRDNPKNTLFLQMTSLRSEDTAMYYCAREGGYDDYYAMDYWGQGTSVTVSS heavy (part 2 of 2): TGSDDLCYTFPCMHY light: DIQMTQSPASQSASLGESVTITCLASQTIGTWLAWYQQKPGKSPQLLIYAATSLADGVPSRFSGSGSGTKFSFKISSLQAEDFVSYYCQQLYSIPLTFGGGTKLEIK ?
Response line: 0.858
